Would you mind telling me the reported self-cleavage of each entry?
B1: HDV Ribozyme (parent)
chain: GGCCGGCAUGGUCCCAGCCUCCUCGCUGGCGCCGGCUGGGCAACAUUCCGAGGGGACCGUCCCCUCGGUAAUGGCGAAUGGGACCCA

Variants of: B1
Assay: self-cleavage, relative activity (ratio to wild type); higher = more cleavage; co-transcriptional
// no unit string in output, number only

Qu. Could you please provide reported self-cleavage for U37G A70U ? Thanks!
Ans. 0.229

Qu. Could you please provide reported self-cleavage for U12G C44A ? Thanks!
Ans. 0.604

Qu. Could you please provide reported self-cleavage for G2U U60G ? Thanks!
Ans. 0.0831

Qu. Could you please provide reported self-cleavage for C32G G82A ? Thanks!
Ans. 0.0997

Qu. Could you please provide reported self-cleavage for C22A U60C ? Thanks!
Ans. 0.424

Qu. Could you please provide reported self-cleavage for C63A U79A ? Thanks!
Ans. 0.636

Qu. Could you please provide reported self-cleavage for G11C A56U ? Thanks!
Ans. 0.111

Qu. Could you please provide reported self-cleavage for G54A G74A ? Thanks!
Ans. 0.445

Qu. Could you please provide reported self-cleavage for C7U A43C ? Thanks!
Ans. 0.26

Qu. Could you please provide reported self-cleavage for U27A C49A ? Thanks!
Ans. 0.831

Qu. Could you please provide reported self-cleavage for G55C A77U ? Thanks!
Ans. 0.65

Qu. Could you please provide reported self-cleavage for G55U U65A ? Thanks!
Ans. 0.891

Qu. Could you please provide reported self-cleavage for G25A A43G ? Thanks!
Ans. 0.35

Qu. Could you please provide reported self-cleavage for G59C G76A ? Thanks!
Ans. 0.767

Qu. Could you please provide reported self-cleavage for G76C C84A ? Thanks!
Ans. 1.19

Qu. Could you please provide reported self-cleavage for U37C A51U ? Thanks!
Ans. 0.923

Qu. Could you please provide reported self-cleavage for C4G G28A ? Thanks!
Ans. 0

Qu. Could you please provide reported self-cleavage for C3A C24U ? Thanks!
Ans. 0.0755

Qu. Could you please provide reported self-cleavage for A16G C58G ? Thanks!
Ans. 0.776

Qu. Could you please provide reported self-cleavage for U27C C41A ? Thanks!
Ans. 0.192

Qu. Could you please provide reported self-cleavage for C21A C64A ? Thanks!
Ans. 0.0692

Qu. Could you please provide reported self-cleavage for G28A U47A ? Thanks!
Ans. 0

Qu. Could you please provide reported self-cleavage for U60A G80U ? Thanks!
Ans. 0.299

Qu. Could you please provide reported self-cleavage for C15A G73C ? Thanks!
Ans. 0.249

Qu. Could you please provide reported self-cleavage for A56G G74A ? Thanks!
Ans. 0.45

Qu. Could you please provide reported self-cleavage for U12C U47A ? Thanks!
Ans. 0.289

Qu. Could you please provide reported self-cleavage for G40C A70G ? Thanks!
Ans. 0.0941

Qu. Could you please provide reported self-cleavage for U46A C85A ? Thanks!
Ans. 0.7

Qu. Could you please provide reported self-cleavage for G67C G68U ? Thanks!
Ans. 0.847
